- TARGET_DESC: human LPA1 (Homo sapiens, UniProt Q92633)
- Sequence (Q92633 whole entry): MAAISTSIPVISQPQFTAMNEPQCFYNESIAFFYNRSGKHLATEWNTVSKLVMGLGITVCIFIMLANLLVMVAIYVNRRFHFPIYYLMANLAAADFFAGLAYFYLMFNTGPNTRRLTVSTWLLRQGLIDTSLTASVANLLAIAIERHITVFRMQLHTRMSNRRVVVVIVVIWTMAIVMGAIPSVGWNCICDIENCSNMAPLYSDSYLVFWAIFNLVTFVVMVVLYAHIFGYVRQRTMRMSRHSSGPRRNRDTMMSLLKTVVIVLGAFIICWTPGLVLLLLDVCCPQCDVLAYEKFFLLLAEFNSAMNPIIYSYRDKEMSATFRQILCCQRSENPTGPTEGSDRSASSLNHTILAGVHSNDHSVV
- MEASUREMENT_PROTOCOL: In vitro functional assay of lysophosphatidic acid receptor 1 activity (calcium flux)
- Format: cell-based
- CONDITION_DETAILS: B103 cells stably expressing human LPA1; Fluo-4 NW calcium flux after lysophosphatidic acid (18:1) at EC80; compounds 100 pM to 10 μM; read-out: LPA1 IC50
pIC50: −log10 of the molar value.
REPORTED_METRIC: pIC50

{"COMPOUND": "Cc1ccc(NC(=O)C2(c3ccccc3C(C)C)CNC(=O)C2)c(OC(F)F)c1 (centres unmarked)", "TARGET_DESC": "human LPA1 (Homo sapiens, UniProt Q92633)", "pIC50": "7.00 to 8.00"}
{"COMPOUND": "CC(C)c1ccccc1C1(C(=O)Nc2ccc(Cl)nc2OC(F)F)CNC(=O)C1 (centres unmarked)", "TARGET_DESC": "human LPA1 (Homo sapiens, UniProt Q92633)", "pIC50": "7.00 to 8.00"}
{"COMPOUND": "Cc1ccc(NC(=O)C2(c3ccccc3C(C)C)CC(NC3CC3)C2)c(OC(F)F)n1 (single isomer, unassigned) [Example 40-isomer A]", "TARGET_DESC": "human LPA1 (Homo sapiens, UniProt Q92633)", "pIC50": "6.00 to 7.00"}

The compound Cc1ccc(NC(=O)C2(c3ccccc3C(C)C)COC2)c(OC(F)F)n1 on human LPA1 (Homo sapiens, UniProt Q92633): pIC50 was 7.00 to 8.00

The compound COc1ccc(NC(=O)C2(c3ccccc3C(C)C)CCC(S(=O)(=O)N(C)C)CC2)c(OC(F)F)n1 (mixture of isomers) on human LPA1 (Homo sapiens, UniProt Q92633): pIC50 was 6.00 to 7.00

---

IC50 overview
- TARGET_DESC: human LPA1 (Homo sapiens, UniProt Q92633)
- MEASUREMENT_PROTOCOL: In vitro functional assay of lysophosphatidic acid receptor 1 activity (calcium flux)
- Format: cell-based
- CONDITION_DETAILS: B103 cells stably expressing human LPA1; Fluo-4 NW calcium flux after lysophosphatidic acid (18:1) at EC80; compounds 100 pM to 10 μM; read-out: LPA1 IC50

Below, each entry is followed by its recorded IC50 result.
{"COMPOUND": "CC(C)c1ccccc1C1(C(=O)Nc2ncc(Cl)cc2OC(F)F)CNC(=O)C1 (stereo not shown)", "IC50": "10 to 100 nM"}
{"COMPOUND": "CC(C)c1ccccc1C1(C(=O)Nc2ccc(Cl)cc2OC(F)F)CCOCC1", "IC50": "100 to 1000 nM"}
{"COMPOUND": "CNS(=O)(=O)C1CC(C(=O)Nc2ccc(C)nc2OC(F)F)(c2ccccc2C(C)C)C1 (stereo not shown)", "IC50": "10 to 100 nM"}

Lab note: next compound to report on.
# compound COc1ccc(NC(=O)C2(c3ccccc3C(C)C)CCC(=O)CC2)c(OC(F)F)n1 ; its IC50 = 10 to 100 nM

---

pIC50 overview
- TARGET_DESC: human LPA1 (Homo sapiens, UniProt Q92633)
- MEASUREMENT_PROTOCOL: In vitro functional assay of lysophosphatidic acid receptor 1 activity (calcium flux)
- Type: cell-based
- CONDITION_DETAILS: B103 cells stably expressing human LPA1; Fluo-4 NW calcium flux after lysophosphatidic acid (18:1) at EC80; compounds 100 pM to 10 μM; read-out: LPA1 IC50
pIC50: −log10 of the molar value.

Below, each entry is followed by its recorded pIC50 result.
{"MOLECULE": "Cc1ccc(NC(=O)C2(c3ccccc3C(C)C)CC(=O)N(C)C2)c(OC(F)F)n1 (centres unmarked)", "pIC50": "7.00 to 8.00"}
{"MOLECULE": "Cc1ccc(NC(=O)C2(c3ncccc3C(C)C)COC2)c(OC(F)F)n1", "pIC50": "6.00 to 7.00"}

# molecule CC(C)c1ccccc1C1(C(=O)Nc2ccc(OC(F)F)nc2Cl)CNC(=O)C1 (centres unmarked) ; its pIC50 = < 6.00

# molecule COC[C@H](C)Oc1cc(Cl)ncc1NC(=O)C1(c2ccccc2C(C)C)COC1 ; its pIC50 = 7.00 to 8.00

Numbers sourced from patent US20250179045A1.
